system: Hepatitis B virus; assay: Antiviral activity against HBV infected in human HepG2.2.15 cells assessed as inhibition of viral replication incubated for 8 days by southern blotting analysis; type: functional, organism-based; conditions: HepG2.2.15, 192 h
The following molecules are shown together with reported pEC50 values.
# pEC50 is unitless: minus log10 of the molar concentration; print number only

Supply pEC50 value. Item: Nc1ccn([C@@H]2CS[C@H](CO)O2)c(=O)n1 [LAMIVUDINE]
6.49

Supply pEC50 value. Item: `CCOC(=O)C1=C(CN2CCOCC2)NC(c2nccs2)=N[C@H]1c1ccc(F)cc1Br`
7.92

---

The following compounds are shown together with reported Activity values.
target: Core antigen (Hepatitis B virus); experiment: Inhibition of capsid protein in HBV infected in human HepDES19 cells assessed as inhibition of viral replication by measuring minus polarity DNA level at 20 uM incubated for 3 days by strand preferential qPCR analysis relative to control; type: cell-based; set-up: scale not given: the % may be the effect or the level left; details: time 3.0 day

* CCOC(=O)C1=C(CN2CCC3(CC2)CC(NC(=O)OC(C)(C)C)C3)NC(c2nccs2)=NC1c1ccc(F)cc1Br (stereo not given) | 117%
* CCOC(=O)C1=C(CN2CCC3(CC2)CNC3)NC(c2nccs2)=NC1c1ccc(F)cc1Br (stereo not given) | 93.4%

Field: next compound
Supply Activity value. Item: CCOC(=O)C1=C(CN2CCC3(CC2)CNC3=O)NC(c2nccs2)=NC1c1ccc(F)cc1Br (stereo not given)
2.5%
